- SYSTEM NAME: ETS1 (UniProt P14921)
- Sequence: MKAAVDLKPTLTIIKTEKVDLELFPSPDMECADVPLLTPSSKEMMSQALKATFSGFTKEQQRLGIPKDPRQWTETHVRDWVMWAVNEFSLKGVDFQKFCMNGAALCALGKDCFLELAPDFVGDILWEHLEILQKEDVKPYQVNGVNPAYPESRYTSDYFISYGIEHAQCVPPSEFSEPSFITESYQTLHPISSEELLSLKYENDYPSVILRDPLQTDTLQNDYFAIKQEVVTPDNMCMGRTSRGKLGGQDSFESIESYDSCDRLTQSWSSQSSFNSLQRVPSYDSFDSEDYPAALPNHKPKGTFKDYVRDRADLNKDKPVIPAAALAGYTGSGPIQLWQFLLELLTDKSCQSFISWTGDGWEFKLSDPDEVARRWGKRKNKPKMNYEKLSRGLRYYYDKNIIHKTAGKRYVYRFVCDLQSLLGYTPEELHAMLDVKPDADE
- ASSAY TEXT: ETS1 binding intensity (PBM fluorescence) in presence of RUNX1, normalised to ETS1-only experiment (arbitrary fluorescence units); higher = stronger binding
- CONDITIONS USED: ETS1 concentration 1 nM; RUNX1 concentration 25 nM
Kind request: treat 900 as inclusive, so ETS1 binding intensity at 900 or higher is MET, anything lower is NOT MET.

Ask | Answer whether ETS1 binding intensity of `GTGCAGGCCGGAAGGAAAAGGGTTGTGGGGCTCATT` is greater than or equal to 900.
Reply | MET

Ask | # check: ETS1 binding intensity of `CCGAGACACATGGGATGTGGGCGGGAGGAGGAATTG` is greater than or equal to 900
Reply | MET

Ask | Please indicate if the recorded ETS1 binding intensity for `AGACCCGGAAATGGTGGGTGTTTCTTGCAACCACGG` meets or exceeds 900.
Reply | MET

Ask | Please tell me: is the sequence `GCATCATCACTTCCTGTTGTGGGCAGTCGTTGCCTG` at or over 900 in terms of ETS1 binding intensity?
Reply | MET

Ask | Check this sequence for ETS1 binding intensity at or above 900: `GCGGGGACCCGGATGTGTGTGGTGGCGGCGGCCGAA`
Reply | MET

Kindly review the next sequence as well.
Ask | Textbook exercise: given the entry `TGCTGTTTCCTCTGCTGCCGAAGCGGTTTCTTCCAC` , state whether its ETS1 binding intensity is greater than or equal to 900.
Reply | NOT MET

----------
- SYSTEM NAME: RUNX1 (UniProt Q01196)
- Sequence (Q01196 whole entry): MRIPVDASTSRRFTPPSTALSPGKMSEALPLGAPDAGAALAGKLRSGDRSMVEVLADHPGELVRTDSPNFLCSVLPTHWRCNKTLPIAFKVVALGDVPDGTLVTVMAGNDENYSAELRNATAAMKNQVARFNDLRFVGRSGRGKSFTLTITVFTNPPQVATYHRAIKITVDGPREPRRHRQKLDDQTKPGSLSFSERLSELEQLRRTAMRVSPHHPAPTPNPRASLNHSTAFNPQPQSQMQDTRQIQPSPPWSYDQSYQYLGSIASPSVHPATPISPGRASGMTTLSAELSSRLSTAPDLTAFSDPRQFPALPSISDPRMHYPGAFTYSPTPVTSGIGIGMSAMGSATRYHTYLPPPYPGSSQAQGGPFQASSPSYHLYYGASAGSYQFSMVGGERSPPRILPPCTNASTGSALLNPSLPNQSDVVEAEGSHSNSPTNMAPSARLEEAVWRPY
- ASSAY TEXT: RUNX1 binding intensity (PBM fluorescence), RUNX1 alone (arbitrary fluorescence units); higher = stronger binding
- CONDITIONS USED: RUNX1 concentration 2 nM; ETS1 concentration 0 nM
So basically: RUNX1 binding intensity at 800 or higher? That is Fulfilled. Lower than 800? That is Not fulfilled.

Ask | Check if RUNX1 binding intensity >= 800 (inclusive). Item: `TCCACAGCCGGTTCCGGCCGGTTCCCACAAGCCCCT`
Reply | Fulfilled

Further cases:
Ask | Check if RUNX1 binding intensity >= 800 (inclusive). Item: `AGCTTTCCTTTTCCGGTTGCGGCGCCGCGCGTTGAT`
Reply | Fulfilled

Ask | Reported RUNX1 binding intensity at or above 800? `GCATTTACGGGCAGGAAATGAAACCACAGAGTACAA`
Reply | Fulfilled

Ask | Could you verify whether the entry `GCAACGGAGTCCGGAAGAACCACAGAGACGCGGCTC` shows RUNX1 binding intensity of no less than 800?
Reply | Not fulfilled

Ask | Say whether `TGAGAAAGCTATTTCCGCCCACAAAGAGGCAAGTCT` shows RUNX1 binding intensity of 800 or more.
Reply | Not fulfilled

Ask | Can `TGGTTTCTCACTGGCGGATGTGGGTGGGTCGCCTCC` be said to have RUNX1 binding intensity at or above 800?
Reply | Not fulfilled

Ask | Say whether `GCAGTGCAGGAAGTGCTTTGTGTGGTACAATCCCAA` shows RUNX1 binding intensity of 800 or more.
Reply | Not fulfilled

Ask | Say whether `GGTTTCCGGGTGAAAAAAAAAAAAAAAACCACGCCA` shows RUNX1 binding intensity of 800 or more.
Reply | Fulfilled

Ask | Would you say `AGGGAGCCCTCCATTTCCTGCCCACATTTGTCACCT` shows RUNX1 binding intensity at minimum 800?
Reply | Fulfilled

Ask | Is RUNX1 binding intensity at least 800? Consider `GTATGGGAAGTGATCTGGCTGCAAACCGCAAGAGAG`
Reply | Fulfilled

Ask | Is the recorded value of RUNX1 binding intensity equal to or greater than 800 for this sequence? `CAACGGCGTAGCCGGAAGTCAGTGGTTTTCGCCCCA`
Reply | Not fulfilled
